Target: DYRK1A (Homo sapiens (Human), UniProt Q13627)
Experiment: DYRK1A kinase assay (HotSpot, Reaction Biology)
Format: biochemical
Settings: purified recombinant kinase, 10 μM ATP, room temperature 120 min
IC50: recorded values

[
  {
    "Compound": "COC(=N)c1nc2ccc3ncnc(Nc4ccc(C)cc4)c3c2s1 [Compound 65]",
    "IC50 [nM]": 0.98
  },
  {
    "Compound": "COC(=N)c1nc2ccc3ncnc(Nc4ccc(Cl)cc4)c3c2s1 [Compound 56]",
    "IC50 [nM]": 1.13
  },
  {
    "Compound": "COC(=N)c1nc2ccc3ncnc(Nc4ccc(N5CCCC5)cc4)c3c2s1 [Compound 77]",
    "IC50 [nM]": 54.8
  }
]
